experiment: Half life was determined; type: ADME; conditions: rat
measure: half-life (h)
The reply should contain only the number, in h.

Look over these answered cases.
[
  {
    "compound": "C[C@@H]1CC[C@H]2[C@@H](C)CO[C@@H]3O[C@]4(C)CCC1[C@]32OO4 (some centres undefined)",
    "half-life, h": 213
  },
  {
    "compound": "C[C@H]1[C@@H](CCCC(=O)O)O[C@@H]2O[C@]3(C)CCC4[C@H](C)CC[C@@H]1[C@]42OO3 (some centres undefined)",
    "half-life, h": 387
  },
  {
    "compound": "CCCC[C@H]1O[C@@H]2O[C@]3(C)CC[C@H]4[C@H](C)CC[C@@H]([C@H]1C)[C@@]24OO3",
    "half-life, h": 165
  }
]

// query Tell me measured half-life for `C[C@@H]1CC[C@H]2[C@@H](C)C(=O)O[C@@H]3O[C@@]4(C)CC[C@@H]1[C@]32OO4` please.
// result 23.5

// query State its half-life for this compound: C[C@H]1[C@@H](CCCCC(=O)O)O[C@@H]2O[C@]3(C)CCC4[C@H](C)CC[C@@H]1[C@]42OO3 (some centres undefined)
// result 374

// query State, in one line, measured half-life of CCO[C@H]1O[C@@H]2OC3(C)CCC4[C@H](C)CC[C@@H]([C@H]1C)[C@]42OO3 (single isomer, unassigned)
// result 11

// query Tell me half-life reported for C[C@H]1[C@@H](OCc2ccc(C(=O)O)cc2)O[C@@H]2OC3(C)CCC4[C@H](C)CC[C@@H]1[C@]42OO3 (single isomer, unassigned)
// result 13.1

// query Identify the reported half-life for the following entry. C[C@H]1[C@@H](Cc2ccccc2)O[C@@H]2O[C@]3(C)CCC4[C@H](C)CC[C@@H]1[C@]42OO3 (some centres undefined)
// result 286

// query For `C[C@H]1[C@@H](O)O[C@@H]2O[C@@]3(C)CC[C@H]4[C@H](C)CC[C@@H]1[C@@]24OO3` , write its half-life.
// result 17.2

Values from ChEMBL document CHEMBL1130799
